Listing of recorded IC50 by entry.
Molecular target: PCP site of the NMDA receptor (cerebellar NMDA receptors)
Test: NMDA receptor binding, [3H]-MK-801 displacement at PCP site, rat cerebellar membranes
Conditions: rat cerebellum membranes; [3H]-MK-801 5 nM; 10 μM glutamate, 10 μM glycine; 120 min, room temperature
Counter-ions that a name gives are not always drawn.

Take a look at these entries with their results.
query: For the compound Cc1ccccc1C1(C(=N)N)C2CC3CC(C2)CC1C3.Cl (centres unmarked) [Example 5, hydrochloride] , give its reported IC50.
result: 31 µM

query: For the compound N=C(N)C1(c2ccc(F)cc2)C2CC3CC(C2)CC1C3 (centres unmarked) [Example 6, hydrochloride] , give its reported IC50.
result: 25 µM

query: For the compound N=C(N)C1(c2ccc(Cl)cc2)C2CC3CC(C2)CC1C3 (centres unmarked) [Example 7, hydrochloride] , give its reported IC50.
result: 34 µM

query: For the compound Cc1ccc(C2(C(=N)N)C3CC4CC(C3)CC2C4)cc1 (centres unmarked) [Example 4, hydrochloride] , give its reported IC50.
result: 56 µM

Moving on to another compound below.
query: For the compound COc1ccc(C2(C(=N)N)C3CC4CC(C3)CC2C4)cc1 (centres unmarked) [Example 8, hydrochloride] , give its reported IC50.
result: 22 µM

// provenance: patent US6262106A
